System: MX1
PROTOCOL DETAILS: Antiproliferative activity against human MX1 cells incubated for 72 hrs by cell-titer Glo assay
Format: functional, cell-based
PARTICULARS: MX1, 72 h
READOUT LABEL: pEC50
Reminder that pEC50 means the negative base-10 logarithm of the concentration expressed in mol/L.

Cn1cc2c3c(c[nH]c3c1=O)CN(CC1CC1)c1ccc(CS(C)(=O)=O)cc1-2    8.70
COC(=O)N1Cc2cn(C)c3c(=O)[nH]cc(c23)-c2cc(CS(C)(=O)=O)ccc21    7.11
Cn1cc2c3c(c[nH]c(=O)c31)-c1cc(CS(C)(=O)=O)ccc1N(c1ccc(F)cc1F)C2    8.40
Cn1cc2c3c(c[nH]c(=O)c31)CN(CC1CC1)c1ccc(S(C)(=O)=O)cc1-2    6.85
Cn1cc2c3c(c[nH]c3c1=O)CN(c1ccccn1)c1ccc(CS(C)(=O)=O)cc1-2    8.89

Param item = `Cn1cc(-c2cc(S(C)(=O)=O)ccc2NCC2CC2)c2cc[nH]c(=O)c21` ; retrieve measured pEC50.
6.85

Param item = `Cn1cc2c3c(c[nH]c3c1=O)CN(C(=O)C1CC1)c1ccc(CS(C)(=O)=O)cc1-2` ; retrieve measured pEC50.
8.11

Param item = `CCC(=O)N1Cc2c[nH]c3c(=O)n(C)cc(c23)-c2cc(CS(C)(=O)=O)ccc21` ; retrieve measured pEC50.
8.33

Param item = `Cn1cc2c3c(c[nH]c(=O)c31)-c1cc(CS(C)(=O)=O)ccc1N(c1ccc(F)cc1)C2` ; retrieve measured pEC50.
8.85

Param item = `Cn1cc2c3c(c[nH]c3c1=O)CN(c1ccc(F)cc1F)c1ccc(CS(C)(=O)=O)cc1-2` ; retrieve measured pEC50.
8.47

Param item = `CCS(=O)(=O)Nc1ccc2c(c1)-c1c[nH]c(=O)c3c1c(cn3C)CN2c1ccccn1` ; retrieve measured pEC50.
8.31

Param item = `Cn1cc2c3c(c[nH]c(=O)c31)CN(CC1CC1)c1ccccc1-2` ; retrieve measured pEC50.
7.24

Param item = `Cn1cc(-c2cc(CS(C)(=O)=O)ccc2NCC2CC2)c2cc[nH]c(=O)c21` ; retrieve measured pEC50.
6.85

Param item = `Cn1cc2c3c(c[nH]c3c1=O)CN(C1CCC(F)(F)CC1)c1ccc(CS(C)(=O)=O)cc1-2` ; retrieve measured pEC50.
8.85
